tested on: NCI-H23; assay: Growth inhibition of human NCI-H23 cells after 48 hrs by sulforhodamine B assay; type: functional; details: NCI-H23, 48 h
Rule: GI50 below 10 µM gives t, anything at or above gives f.

Hello, I'm reviewing records and need to know if GI50 of COCOc1cc(/C=C/c2cc(CO)c3c(c2)C[C@@H]2C(C)(C)[C@H](O)CC[C@@]2(C)O3)cc(OC)c1C/C=C(\C)CCC=C(C)C is below 10 µM. Could you check?
t

Hello, I'm reviewing records and need to know if GI50 of COc1cc(/C=C/c2cc3c(c(SC)c2)O[C@]2(C)CC[C@@H](O)C(C)(C)[C@H]2C3)cc(O)c1C/C=C(\C)CCC=C(C)C is below 10 µM. Could you check?
f

Hello, I'm reviewing records and need to know if GI50 of COc1cc(/C=C/c2cc3c(c(OC)c2)O[C@]2(C)CC[C@@H](O)C(C)(C)[C@H]2C3)cc(O)c1C/C=C(\C)CCC=C(C)C is below 10 µM. Could you check?
t

Hello, I'm reviewing records and need to know if GI50 of COc1cc(/C=C/c2ccc3c(c2)C[C@@H]2C(C)(C)[C@H](O)CC[C@@]2(C)O3)cc(O)c1C/C=C(\C)CCC=C(C)C is below 10 µM. Could you check?
f

Hello, I'm reviewing records and need to know if GI50 of COc1cc(/C=C/c2cc(O)c3c(c2)C[C@@H]2C(C)(C)[C@H](O)CC[C@@]2(C)O3)cc(O)c1C/C=C(\C)CCC=C(C)C is below 10 µM. Could you check?
t

Hello, I'm reviewing records and need to know if GI50 of COCOc1cc(/C=C/c2cc(C=O)c3c(c2)C[C@@H]2C(C)(C)[C@H](O)CC[C@@]2(C)O3)cc(OC)c1C/C=C(\C)CCC=C(C)C is below 10 µM. Could you check?
f

Hello, I'm reviewing records and need to know if GI50 of COc1cc(/C=C/c2cc(F)c3c(c2)C[C@@H]2C(C)(C)[C@H](O)CC[C@@]2(C)O3)cc(O)c1C/C=C(\C)CCC=C(C)C is below 10 µM. Could you check?
t
